# Test system: Echinochloa crus-galli
# test name: Test Example 12: herbicidal effect test by treatment during growing period in paddy field
# Type: in vivo
# reported conditions: 120 g/10a; treatment seven days after sowing in flooded paddy pot; assessed 14 days after treatment
property name: Weed suppression rate (%) Echinochloa crus-galli
Numbers only, in %.

Some compounds with known Weed suppression rate (%) Echinochloa crus-galli results, for comparison:
CC(C)N(C(=O)n1cnn(S(=O)(=O)c2ccccc2F)c1=O)c1cccc(F)c1F = 100
CC(C)N(C(=O)n1cnn(S(=O)(=O)N(C)C)c1=O)c1ccc(C(F)(F)F)cc1Cl = 90
CC(C)N(C(=O)n1cnn(S(C)(=O)=O)c1=O)c1ccc(F)cc1F = 100
CC(C)N(C(=O)n1cnn(S(C)(=O)=O)c1=O)c1c(F)cccc1F = 100
CN(C(=O)n1cnn(S(=O)(=O)C2CC2)c1=O)c1ccc(F)cc1F = 100
CC(C)N(C(=O)n1cnn(S(=O)(=O)c2c(F)c(F)c(F)c(F)c2F)c1=O)c1ccccc1 = 90
CC(C)N(C(=O)n1cnn(S(=O)(=O)c2ccc(F)cc2)c1=O)c1ccc(F)cc1F = 90

Query block: // returns reported Weed suppression rate (%) Echinochloa crus-galli for input Cc1ccc(S(=O)(=O)n2ncn(C(=O)N(c3cccc(F)c3)C(C)C)c2=O)cc1
Result block: 90
